Please go through the items and note down their growth inhibition.
Assay: NCI Yeast Anticancer Drug Screen. Data for the mec2-1 strain (AID 157)
Settings: S. cerevisiae mec2-1 strain, at 50.0 µM, stronger effect = higher value
The panel holds about 79,000 compounds, 15% with a hit somewhere; the sample as a whole holds those more often.
Give bare numbers, in %.

Worked set:
>>> test_value("O=C(Cn1c2c(c3ccccc31)CCCC2)N1CCCC1")
-39.9
>>> test_value("Cc1ccc(-c2cc(=O)c3cccc(CC(=O)O)c3o2)cc1")
-38.9
>>> test_value("CC(C)CCCC(C)C1CCC2(C)C3=C(CCC12C)C1(C)Cc2nonc2C(C)(C)C1CC3 (configuration not stated)")
3.35

Would you mind giving growth inhibition for every molecule in the list below?
1. Cc1cc(=O)[nH]c(/N=C(\N)Nc2ccc(Br)c(C(F)(F)F)c2)n1
2. CN(C)CC1CC(O)C(CN(C)C)CC1O (configuration not stated)
3. CCCCCC/C=C\CCCCCCCCCc1cccc(OC)c1O

Reply:
[2.85, -13.4, 6.65]

Would you mind giving growth inhibition for every molecule in the list below?
1. c1ccc(-c2nn(-c3ccccc3)[n+](-c3ccccc3)n2)cc1
2. CCSCCNC(=O)NS(=O)(=O)c1ccc(C)cc1
3. COc1ccc(/C=C2\CCC/C(=C\c3ccc(O)c(CN4CCCCC4)c3)C2=O)cc1
4. C1CCN(SN2CCCCC2)CC1
5. NC(=O)N1CCc2ccccc2C1c1ccccc1 (configuration not stated)
6. O=C(NCCCN1CCCCCC1)C(c1ccccc1)C1CCCCC1 (configuration not stated)

Reply:
1. 1.15
2. -0.75
3. 85.5
4. -15.7
5. -12.7
6. -16.4
